- targetSystem: hNaV1.2 (SCN2A) (Homo sapiens)
- Construct: expressed in transfected cells
- Sequence (Q99250 whole entry): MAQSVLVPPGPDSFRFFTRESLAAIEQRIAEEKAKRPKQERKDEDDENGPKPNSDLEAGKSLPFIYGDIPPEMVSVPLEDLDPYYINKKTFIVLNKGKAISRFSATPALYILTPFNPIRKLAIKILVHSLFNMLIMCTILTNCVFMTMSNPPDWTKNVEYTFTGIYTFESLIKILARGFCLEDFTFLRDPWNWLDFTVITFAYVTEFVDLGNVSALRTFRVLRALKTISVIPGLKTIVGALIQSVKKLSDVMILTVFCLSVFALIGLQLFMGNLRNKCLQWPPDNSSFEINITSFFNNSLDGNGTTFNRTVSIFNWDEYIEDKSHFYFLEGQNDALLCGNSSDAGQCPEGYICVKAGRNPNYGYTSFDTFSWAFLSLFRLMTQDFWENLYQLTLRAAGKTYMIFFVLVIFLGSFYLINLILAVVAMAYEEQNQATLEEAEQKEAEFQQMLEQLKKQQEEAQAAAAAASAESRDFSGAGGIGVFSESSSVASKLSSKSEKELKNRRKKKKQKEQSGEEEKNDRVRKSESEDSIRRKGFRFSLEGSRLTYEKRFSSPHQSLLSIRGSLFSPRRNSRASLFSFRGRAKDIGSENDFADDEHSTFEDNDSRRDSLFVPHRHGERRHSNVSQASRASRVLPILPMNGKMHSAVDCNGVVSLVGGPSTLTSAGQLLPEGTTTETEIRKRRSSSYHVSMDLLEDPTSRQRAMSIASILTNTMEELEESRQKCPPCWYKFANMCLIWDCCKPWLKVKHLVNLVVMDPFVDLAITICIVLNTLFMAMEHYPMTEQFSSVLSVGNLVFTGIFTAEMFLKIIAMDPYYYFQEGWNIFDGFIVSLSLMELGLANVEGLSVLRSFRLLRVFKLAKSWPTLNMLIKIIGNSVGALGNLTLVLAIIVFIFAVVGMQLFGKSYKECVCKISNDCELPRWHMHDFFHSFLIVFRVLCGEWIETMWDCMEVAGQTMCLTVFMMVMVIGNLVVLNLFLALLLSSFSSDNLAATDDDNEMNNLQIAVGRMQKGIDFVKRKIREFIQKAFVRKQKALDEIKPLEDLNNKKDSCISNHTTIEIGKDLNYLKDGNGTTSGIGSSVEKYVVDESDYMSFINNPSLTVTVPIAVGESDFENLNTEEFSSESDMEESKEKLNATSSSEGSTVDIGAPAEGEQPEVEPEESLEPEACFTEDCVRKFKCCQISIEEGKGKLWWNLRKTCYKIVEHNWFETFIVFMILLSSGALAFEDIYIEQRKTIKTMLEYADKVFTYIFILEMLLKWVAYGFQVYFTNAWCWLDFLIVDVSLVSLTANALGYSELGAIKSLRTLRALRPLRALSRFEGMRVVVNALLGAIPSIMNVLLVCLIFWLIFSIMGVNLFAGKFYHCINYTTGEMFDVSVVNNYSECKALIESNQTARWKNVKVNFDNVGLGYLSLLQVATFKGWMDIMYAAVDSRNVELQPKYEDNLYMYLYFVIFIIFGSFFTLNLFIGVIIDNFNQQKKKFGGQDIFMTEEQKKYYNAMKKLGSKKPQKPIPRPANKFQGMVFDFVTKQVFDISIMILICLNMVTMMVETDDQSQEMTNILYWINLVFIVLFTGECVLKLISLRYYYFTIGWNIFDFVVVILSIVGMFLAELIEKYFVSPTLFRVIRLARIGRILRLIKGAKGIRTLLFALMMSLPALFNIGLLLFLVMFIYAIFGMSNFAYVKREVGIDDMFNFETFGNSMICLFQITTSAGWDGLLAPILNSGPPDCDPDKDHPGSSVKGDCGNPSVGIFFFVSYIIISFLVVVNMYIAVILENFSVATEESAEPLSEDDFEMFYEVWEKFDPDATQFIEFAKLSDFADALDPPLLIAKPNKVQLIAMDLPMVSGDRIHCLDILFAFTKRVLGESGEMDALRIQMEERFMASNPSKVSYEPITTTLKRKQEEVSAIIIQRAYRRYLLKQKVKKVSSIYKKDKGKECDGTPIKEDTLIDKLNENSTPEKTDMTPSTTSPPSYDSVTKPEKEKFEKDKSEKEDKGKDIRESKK
- Sequence (Q07699 19-218 partner): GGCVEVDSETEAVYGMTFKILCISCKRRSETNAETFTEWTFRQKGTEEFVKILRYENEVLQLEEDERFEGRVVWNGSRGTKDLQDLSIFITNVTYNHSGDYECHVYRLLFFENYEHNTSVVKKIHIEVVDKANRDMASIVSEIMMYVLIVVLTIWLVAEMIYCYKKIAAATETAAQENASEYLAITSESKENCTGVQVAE
- Sequence (O60939 30-215 partner): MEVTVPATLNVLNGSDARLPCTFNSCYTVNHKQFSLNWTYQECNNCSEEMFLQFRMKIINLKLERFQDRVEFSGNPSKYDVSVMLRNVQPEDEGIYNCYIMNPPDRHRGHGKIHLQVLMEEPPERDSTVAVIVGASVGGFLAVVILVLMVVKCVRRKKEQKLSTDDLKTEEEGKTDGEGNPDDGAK
- experimentSummary: Use-dependent inhibition of the CNS Nav1.2 sodium channel
- Type: cell-based
- runConditions: use-dependent block, 25 Hz, pulse 20, read-out: Nav1.2 UDB 25 Hz 10 uM
Reported inhibition at 10 µM values follow for various compounds
quantityKind: inhibition at 10 µM

{"columns": ["compound", "observedMeasurement"],
 "data": [
  ["Cc1nnc(C(C)Oc2noc3ccc(-c4ccc(OC(F)(F)F)cc4)cc23)o1 (stereo not drawn) [Example 153]", "53.7%"],
  ["Cc1cc(-c2ccc(OC(F)(F)F)cc2)cc2c(OCc3ncccn3)noc12 [Example 16]", "18%"],
  ["Cc1cc2onc(OCc3ncccn3)c2cc1-c1ccc(OC(F)(F)F)cc1 [Example 26]", "< 5%"],
  ["CN(C)c1noc2ccc(-c3ccc(OC(F)(F)F)cc3)cc12 [Example 133]", "29.2%"],
  ["FC(F)(F)c1ccc(-c2ccc3onc(OCc4ncccn4)c3c2)cc1 [Example 9]", "< 5%"],
  ["Fc1cc(C(F)(F)F)ccc1-c1ccc2onc(OCc3ncccn3)c2c1 [Example 6]", "< 5%"],
  ["Cc1cc(-c2ccc(OC(F)(F)F)cc2)cc2c(OCCn3cncn3)noc12 [Example 89]", "52%"],
  ["FC(F)(F)Oc1ccc(-c2ccc3onc(OCC4CCO4)c3c2)cc1 (stereo not drawn) [Example 42]", "< 5%"],
  ["O=C1CCCN1CCOc1noc2c(F)cc(-c3ccc(OC(F)(F)F)cc3)cc12 [Example 80]", "17.5%"],
  ["O=C(COc1noc2ccc(-c3ccc(OC(F)(F)F)cc3)cc12)N1CCCC1 [Example 121]", "57.8%"],
  ["COc1cc2onc(OCc3ncccn3)c2cc1-c1ccc(OC(F)(F)F)c(C)c1 [Example 14]", "9.6%"],
  ["COc1ccnc(COc2noc3ccc(-c4ccc(OC(F)(F)F)cc4)cc23)c1 [Example 81]", "21.8%"],
  ["Cc1cc(-c2ccc3onc(OCc4ncccn4)c3c2)ccc1OC(F)(F)F [Example 7]", "< 5%"],
  ["Cc1cnc(COc2noc3ccc(-c4ccc(OC(F)(F)F)cc4)cc23)cn1 [Example 73]", "< 5%"],
  ["Cc1nnc(COc2noc3ccc(-c4ccc(OC(F)(F)F)cc4)cc23)o1 [Example 99]", "50.5%"],
  ["Nc1noc2ccc(-c3ccc(OC(F)(F)F)cc3)cc12 [Example 147]", "20.4%"],
  ["COc1cc(OC(F)(F)F)ccc1-c1ccc2onc(OCc3ncccn3)c2c1 [Example 4]", "13.9%"],
  ["C[C@H](COc1noc2ccc(-c3ccc(OC(F)(F)F)cc3)cc12)N1CCCC1=O [Example 119]", "52.3%"]
]}

* * *

Reported inhibition at 3 µM is given for each of the following compounds.
- targetSystem: wild-type human cardiac sodium channel, hNav1.5 (Homo sapiens, UniProt Q14524)
- Sequence (Q14524 whole entry): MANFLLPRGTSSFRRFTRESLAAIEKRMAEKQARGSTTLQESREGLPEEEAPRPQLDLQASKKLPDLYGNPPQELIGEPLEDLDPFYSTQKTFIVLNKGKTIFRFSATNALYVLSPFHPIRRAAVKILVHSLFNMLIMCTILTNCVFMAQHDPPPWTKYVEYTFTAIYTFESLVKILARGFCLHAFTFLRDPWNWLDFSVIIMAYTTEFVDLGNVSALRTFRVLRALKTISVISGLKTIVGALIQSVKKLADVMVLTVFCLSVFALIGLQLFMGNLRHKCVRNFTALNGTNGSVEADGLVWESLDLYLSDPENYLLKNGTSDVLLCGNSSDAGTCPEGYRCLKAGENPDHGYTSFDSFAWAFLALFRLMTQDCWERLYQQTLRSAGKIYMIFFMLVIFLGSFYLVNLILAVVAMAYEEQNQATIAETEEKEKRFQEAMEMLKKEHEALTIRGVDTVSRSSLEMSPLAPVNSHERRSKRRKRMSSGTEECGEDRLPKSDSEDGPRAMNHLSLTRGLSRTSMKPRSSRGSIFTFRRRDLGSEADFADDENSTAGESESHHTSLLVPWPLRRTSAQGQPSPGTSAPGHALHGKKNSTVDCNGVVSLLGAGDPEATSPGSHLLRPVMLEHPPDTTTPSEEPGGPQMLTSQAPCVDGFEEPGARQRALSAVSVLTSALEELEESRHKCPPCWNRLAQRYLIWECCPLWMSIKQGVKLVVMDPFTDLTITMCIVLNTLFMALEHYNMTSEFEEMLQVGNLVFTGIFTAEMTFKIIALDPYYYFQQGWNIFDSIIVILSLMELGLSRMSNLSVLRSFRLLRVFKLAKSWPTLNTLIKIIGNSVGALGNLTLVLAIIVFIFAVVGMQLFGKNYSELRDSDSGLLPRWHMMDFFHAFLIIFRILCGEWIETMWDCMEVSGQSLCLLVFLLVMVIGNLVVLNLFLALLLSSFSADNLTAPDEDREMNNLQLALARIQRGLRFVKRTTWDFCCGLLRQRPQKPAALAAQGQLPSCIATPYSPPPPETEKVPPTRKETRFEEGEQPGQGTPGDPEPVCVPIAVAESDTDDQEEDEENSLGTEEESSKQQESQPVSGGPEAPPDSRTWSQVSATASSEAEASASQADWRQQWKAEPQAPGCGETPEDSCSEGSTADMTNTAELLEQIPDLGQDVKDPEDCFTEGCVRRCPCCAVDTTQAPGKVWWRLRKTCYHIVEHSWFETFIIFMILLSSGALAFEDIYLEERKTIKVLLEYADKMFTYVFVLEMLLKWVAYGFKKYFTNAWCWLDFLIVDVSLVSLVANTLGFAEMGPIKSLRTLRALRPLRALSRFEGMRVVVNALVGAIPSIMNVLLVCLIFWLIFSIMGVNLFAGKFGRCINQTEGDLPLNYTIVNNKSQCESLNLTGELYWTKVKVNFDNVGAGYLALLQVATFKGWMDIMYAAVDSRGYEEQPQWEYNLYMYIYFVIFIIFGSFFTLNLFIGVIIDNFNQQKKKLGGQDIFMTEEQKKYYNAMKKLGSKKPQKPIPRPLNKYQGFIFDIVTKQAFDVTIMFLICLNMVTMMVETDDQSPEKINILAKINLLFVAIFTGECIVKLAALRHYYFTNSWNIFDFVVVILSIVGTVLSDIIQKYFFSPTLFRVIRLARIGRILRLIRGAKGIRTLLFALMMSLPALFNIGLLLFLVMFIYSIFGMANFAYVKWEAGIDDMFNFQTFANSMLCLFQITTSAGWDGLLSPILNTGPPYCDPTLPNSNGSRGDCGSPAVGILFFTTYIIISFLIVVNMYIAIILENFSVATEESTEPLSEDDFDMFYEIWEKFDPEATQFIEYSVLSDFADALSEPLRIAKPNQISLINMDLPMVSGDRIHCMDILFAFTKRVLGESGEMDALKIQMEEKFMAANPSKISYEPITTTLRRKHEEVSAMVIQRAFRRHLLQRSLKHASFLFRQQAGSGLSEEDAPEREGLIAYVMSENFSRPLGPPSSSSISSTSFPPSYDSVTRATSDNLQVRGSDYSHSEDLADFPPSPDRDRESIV
- experimentSummary: Peak INa screening assay (tonic block and use-dependent block)
- Format: cell-based
- runConditions: tonic block of Peak INa, 0.1 Hz, holding -100 mV, read-out: Peak TB 3 uM

{"columns": ["compound", "inhibition at 3 µM, %"],
 "data": [
  ["Fc1cc(C(F)(F)F)ccc1-c1cc2c(OCc3ncccn3)noc2cc1F [Example 33]", 20.9],
  ["O=C1CC[C@H](COc2noc3ccc(-c4ccc(OC(F)(F)F)cc4)cc23)N1 [Example 61]", 11.8],
  ["Cc1cc(COc2noc3ccc(-c4ccc(OC(F)(F)F)cc4)cc23)on1 [Example 102]", 27.8],
  ["FC(F)(F)Oc1ccc(-c2ccc3onc(OCCn4ccnc4)c3c2)cc1 [Example 55]", 15.1],
  ["FC(F)(F)c1ccc(-c2ccc3onc(OCc4ncccn4)c3c2)cc1 [Example 9]", 41.3],
  ["Cc1nc(C)n(CCOc2noc3ccc(-c4ccc(OC(F)(F)F)cc4)cc23)n1 [Example 76]", 49.9],
  ["Cc1nccnc1COc1noc2ccc(-c3ccc(OC(F)(F)F)cc3)cc12 [Example 152]", 30.6],
  ["Fc1cc2onc(OCc3ncccn3)c2cc1-c1ccc2c(c1)OC(F)(F)O2 [Example 35]", 17.4],
  ["Cc1cc2onc(OCc3ncccn3)c2cc1-c1ccc(OC(F)(F)F)cc1 [Example 26]", 27.8]
]}

* * *

- targetSystem: wild-type human cardiac sodium channel, hNav1.5 (Homo sapiens, UniProt Q14524)
- experimentSummary: Peak INa screening assay (tonic block and use-dependent block)
- Assay type: cell-based
- runConditions: tonic block of Peak INa, 0.1 Hz, holding -100 mV, read-out: Peak TB 3 uM
Below: a set of entries, each annotated with reported inhibition at 3 µM.
quantityKind: inhibition at 3 µM (%)

{"columns": ["itemSmiles", "targetSystem", "observedMeasurement"],
 "data": [
  ["FC(F)(F)Oc1ccc(-c2ccc3onc(OC[C@H]4COCCN4)c3c2)cc1", "wild-type human cardiac sodium channel, hNav1.5 (Homo sapiens, UniProt Q14524)", 43.4],
  ["Cn1cc(COc2noc3ccc(-c4ccc(OC(F)(F)F)cc4)cc23)nn1", "wild-type human cardiac sodium channel, hNav1.5 (Homo sapiens, UniProt Q14524)", 29.9],
  ["O=C1CCCN1CCOc1noc2ccc(-c3ccc(OC(F)(F)F)cc3)cc12", "wild-type human cardiac sodium channel, hNav1.5 (Homo sapiens, UniProt Q14524)", 19],
  ["FC(F)(F)Oc1ccc(-c2ccc3onc(OC[C@@H]4CCCN4)c3c2)cc1", "wild-type human cardiac sodium channel, hNav1.5 (Homo sapiens, UniProt Q14524)", 62.6],
  ["FC(F)(F)Oc1ccc(-c2ccc3onc(OCc4cn[nH]c4)c3c2)cc1", "wild-type human cardiac sodium channel, hNav1.5 (Homo sapiens, UniProt Q14524)", 16.8],
  ["Fc1cc2onc(OCc3ncccn3)c2cc1-c1ccc(OC(F)(F)F)cc1", "wild-type human cardiac sodium channel, hNav1.5 (Homo sapiens, UniProt Q14524)", 18.5],
  ["FC(F)(F)COc1ccc(-c2ccc3onc(OCc4ncccn4)c3c2)cn1", "wild-type human cardiac sodium channel, hNav1.5 (Homo sapiens, UniProt Q14524)", 13],
  ["Fc1cc(-c2ccc(OC(F)(F)F)cc2)cc2c(OCc3ncccn3)noc12", "wild-type human cardiac sodium channel, hNav1.5 (Homo sapiens, UniProt Q14524)", 28.9],
  ["FC(F)(F)Oc1ccc(-c2ccc3onc(OCCn4cnnc4)c3c2)cc1", "wild-type human cardiac sodium channel, hNav1.5 (Homo sapiens, UniProt Q14524)", 39]
]}

* * *

- targetSystem: wild-type human cardiac sodium channel, hNav1.5 (Homo sapiens, UniProt Q14524)
- experimentSummary: Peak INa screening assay (tonic block and use-dependent block)
- Type: cell-based
- runConditions: use-dependent block of Peak INa, 3 Hz, pulse 50, read-out: Peak UDB 3 Hz 3 uM
- Protocol: The cardiac late sodium current (Late INa) and peak sodium current (Peak INa) assays are performed on an automated electrophysiology platform, QPatch 16X or QPatch HT (Sophion Bioscience, Copenhagen, Denmark) using the whole cell patch clamp technique to measure currents through the cell membrane. […] Compounds were evaluated for their effect Nav1.5 Peak INa. […]
quantityKind: inhibition at 3 µM (%)

{"columns": ["itemSmiles", "targetSystem", "quantityKind", "censorSymbol", "observedMeasurement"],
 "data": [
  ["Fc1cc2onc(OCc3ncccn3)c2cc1-c1ccc2c(c1)OC(F)(F)O2", "wild-type human cardiac sodium channel, hNav1.5 (Homo sapiens, UniProt Q14524)", "inhibition at 3 µM", "<", 5],
  ["FC(F)(F)Oc1ccc(-c2ccc3onc(OC[C@@H]4CCCN4)c3c2)cc1", "wild-type human cardiac sodium channel, hNav1.5 (Homo sapiens, UniProt Q14524)", "inhibition at 3 µM", "=", 69.3],
  ["Cc1nnc(COc2noc3ccc(-c4ccc(OC(F)(F)F)cc4)cc23)o1", "wild-type human cardiac sodium channel, hNav1.5 (Homo sapiens, UniProt Q14524)", "inhibition at 3 µM", "<", 5],
  ["CCn1cncc1COc1noc2ccc(-c3ccc(OC(F)(F)F)cc3)cc12", "wild-type human cardiac sodium channel, hNav1.5 (Homo sapiens, UniProt Q14524)", "inhibition at 3 µM", "<", 5],
  ["COc1cc2onc(OCc3ncccn3)c2cc1-c1ccc(F)c(Cl)c1", "wild-type human cardiac sodium channel, hNav1.5 (Homo sapiens, UniProt Q14524)", "inhibition at 3 µM", "<", 5],
  ["FC(F)(F)Oc1ccc(-c2ccc3onc(OCc4cn5ccccc5n4)c3c2)cc1", "wild-type human cardiac sodium channel, hNav1.5 (Homo sapiens, UniProt Q14524)", "inhibition at 3 µM", "=", 7.7],
  ["Cc1cc(-c2ccc(OC(F)(F)F)cc2)cc2c(OCCN3CCCC3=O)noc12", "wild-type human cardiac sodium channel, hNav1.5 (Homo sapiens, UniProt Q14524)", "inhibition at 3 µM", "=", 19.5],
  ["FC(F)(F)Oc1ccc(-c2ccc3onc(NCc4ncccn4)c3c2)cc1", "wild-type human cardiac sodium channel, hNav1.5 (Homo sapiens, UniProt Q14524)", "inhibition at 3 µM", "<", 5],
  ["Cc1nnc(COc2noc3c(F)cc(-c4ccc(OC(F)(F)F)cc4)cc23)o1", "wild-type human cardiac sodium channel, hNav1.5 (Homo sapiens, UniProt Q14524)", "inhibition at 3 µM", "=", 8.4],
  ["FC(F)(F)Oc1ccc(-c2ccc3onc(-n4cnc(Cl)c4)c3c2)cc1", "wild-type human cardiac sodium channel, hNav1.5 (Homo sapiens, UniProt Q14524)", "inhibition at 3 µM", "<", 5],
  ["Cc1ccnc(COc2noc3ccc(-c4ccc(OC(F)(F)F)cc4)cc23)n1", "wild-type human cardiac sodium channel, hNav1.5 (Homo sapiens, UniProt Q14524)", "inhibition at 3 µM", "<", 5],
  ["CN1CCN(c2noc3ccc(-c4ccc(OC(F)(F)F)cc4)cc23)CC1", "wild-type human cardiac sodium channel, hNav1.5 (Homo sapiens, UniProt Q14524)", "inhibition at 3 µM", "=", 25.1],
  ["FC(F)(F)Oc1ccc(-c2ccc3onc(OCCn4cnnc4)c3c2)cc1", "wild-type human cardiac sodium channel, hNav1.5 (Homo sapiens, UniProt Q14524)", "inhibition at 3 µM", "=", 13.3],
  ["COCCOc1noc2ccc(-c3ccc(OC(F)(F)F)cc3)cc12", "wild-type human cardiac sodium channel, hNav1.5 (Homo sapiens, UniProt Q14524)", "inhibition at 3 µM", "<", 5],
  ["FC(F)(F)Oc1ccc(-c2ccc3onc(-n4cnc(-c5ccccc5)c4)c3c2)cc1", "wild-type human cardiac sodium channel, hNav1.5 (Homo sapiens, UniProt Q14524)", "inhibition at 3 µM", "=", 13.9],
  ["COc1cc(-c2ccc(OC(F)(F)F)c(C)c2)cc2c(OCc3ncccn3)noc12", "wild-type human cardiac sodium channel, hNav1.5 (Homo sapiens, UniProt Q14524)", "inhibition at 3 µM", "<", 5],
  ["O=C1CCCN1CCOc1noc2c(F)cc(-c3ccc(OC(F)(F)F)cc3)cc12", "wild-type human cardiac sodium channel, hNav1.5 (Homo sapiens, UniProt Q14524)", "inhibition at 3 µM", "=", 13.7],
  ["CC(C)c1nnc(COc2noc3ccc(-c4ccc(OC(F)(F)F)cc4)cc23)o1", "wild-type human cardiac sodium channel, hNav1.5 (Homo sapiens, UniProt Q14524)", "inhibition at 3 µM", "<", 5]
]}

Ref: patent US9416115B2
